# experimental target: T1, B Lymphocyte Stimulator, soluble form (human) (human, UniProt Q9Y275 134-285, biotinylated with NHS-biotin where used as biotinylated B Lymphocyte Stimulator)
# T1 construct: Coated on plastic, captured on streptavidin plates, amine-coupled to a CM5 chip or free in solution, depending on the assay; also called BLyS; immobilized B Lymphocyte Stimulator
# protocol text: phage ELISA
quantity measured: binding result

- I008D05 (scFv, also called 1008D05) scFv: GVQLVQSGAEVKKPGSSVKISCKASGVTFNDYAFSWVRQAPGQGLEWVGGIIPKFGKAKYAQKFQGRLTISGDKSTSTAYMELRSLTSDDTAVYYCARATYDPLTGYSFDGFDIWGQGTMVTVSSGGGGSGGGGSGGGGSQSVLTQPASVSGSPGQSITISCTGTSSDVGGYNYVSWYQQHPGKAPKLMIYEGSKRPSGVSNRFSGSKSGNPASLTISGLQAEDEADYYCSSYTTRSTRVFGGGTKLTVLG: binds
- I065D04 (scFv) scFv: QVQLQESGPGLVKPSETLSLTCTVSGGSISSGYYWGWVRQPPGQGLEWIGSIYHSGSTYHNPSLKSRVTISMDTSKNQFSLNLNSVTAADTAVYYCARGKGYYDILTGYYRDNWFDPWGRGTLVTVSSGGGGSGGGGSGGGGSQSVLTQPASVSGSPGQSITISCTGTSSDVGGYNYVSWYQQHPGKAPKLMIYEGSKRPSGVSNRFSGSKSGNTASLTISGLQAEDEADYYCSSYTTRSTRVFGGGTKLTVLG: binds
